- System: ADGRG2-FL (Mus musculus)
- Construct: Wildtype ADGRG2 full-length (ADGRG2-FL) was cloned from mouse total cDNA libraries; expressed in transfected cells; host or cells: HEK293
- Sequence (Q8CJ12 38-995 isoform Q8CJ12-3 limits assumed): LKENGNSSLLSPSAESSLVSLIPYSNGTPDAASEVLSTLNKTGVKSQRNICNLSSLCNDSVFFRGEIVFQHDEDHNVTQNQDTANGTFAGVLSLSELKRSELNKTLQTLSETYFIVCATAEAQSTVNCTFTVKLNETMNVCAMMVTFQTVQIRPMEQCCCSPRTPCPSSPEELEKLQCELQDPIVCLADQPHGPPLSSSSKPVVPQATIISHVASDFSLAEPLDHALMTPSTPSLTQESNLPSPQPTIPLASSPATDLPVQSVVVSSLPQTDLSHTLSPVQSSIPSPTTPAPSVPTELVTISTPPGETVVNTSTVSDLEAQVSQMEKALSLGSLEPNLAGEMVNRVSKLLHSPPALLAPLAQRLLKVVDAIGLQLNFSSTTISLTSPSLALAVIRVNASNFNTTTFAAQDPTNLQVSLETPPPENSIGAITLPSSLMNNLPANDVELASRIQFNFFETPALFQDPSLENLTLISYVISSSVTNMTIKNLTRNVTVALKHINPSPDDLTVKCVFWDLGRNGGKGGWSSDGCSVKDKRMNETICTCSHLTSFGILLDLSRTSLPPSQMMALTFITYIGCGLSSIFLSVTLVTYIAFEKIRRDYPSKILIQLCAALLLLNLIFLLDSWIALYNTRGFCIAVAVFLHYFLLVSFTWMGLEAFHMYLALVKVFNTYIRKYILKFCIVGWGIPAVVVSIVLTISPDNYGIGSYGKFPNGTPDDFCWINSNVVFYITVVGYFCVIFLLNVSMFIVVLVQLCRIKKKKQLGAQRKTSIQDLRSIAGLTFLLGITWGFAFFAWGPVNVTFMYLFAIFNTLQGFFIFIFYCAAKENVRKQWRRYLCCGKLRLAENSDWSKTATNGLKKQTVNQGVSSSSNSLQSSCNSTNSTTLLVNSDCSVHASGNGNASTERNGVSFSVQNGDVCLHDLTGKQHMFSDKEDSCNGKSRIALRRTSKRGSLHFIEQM
- Procedure summary: GloSensor cAMP assay, HEK293 transfected with ADGRG2-FL
- Assay type: cell-based
- Settings: HEK293 transfected with ADGRG2-FL, increasing peptide concentration, cAMP Glosensor; repeated 6 times
- Experimental: Wildtype ADGRG2 full-length (ADGRG2-FL) was cloned from mouse total cDNA libraries using the following primers: forward, […]; reverse, […], and then ADGRG2-FL, ADGRG2 C-terminal truncation mutant (ADGRG2-β), and ADGRG2-ΔGPS-β (the entire ECD of ADGRG2 was deleted) were subcloned into the pcDNA3.1 expression vector. […] The Glosensor cAMP assay was performed as described ([6], [39], [40]). […] The cAMP signal was examined using a luminescence counter (Mithras LB 940).
No end group written: not given here.
Measured attribute: pEC50
Kindly note that pEC50 refers to -log10 of the concentration in mol/L and answer with the value alone.

TSFGILLDLSRTSLP [p15, reference compound]; 3.76

Turning to the following sequence.
Exercise: Give pEC50 for this entry on ADGRG2-FL (Mus musculus): TSFGILLDLSRTSAP [L14A]
Key: 3.56
